Target: D-2 receptor (Rattus norvegicus, UniProt P61169)
Construct: Striatal tissue was excised, pooled, and homogenized; from tissue; host or cells: rat striatum, washed membrane pellet (male Sprague-Dawley rats, Charles River)
Sequence (P61169 whole entry): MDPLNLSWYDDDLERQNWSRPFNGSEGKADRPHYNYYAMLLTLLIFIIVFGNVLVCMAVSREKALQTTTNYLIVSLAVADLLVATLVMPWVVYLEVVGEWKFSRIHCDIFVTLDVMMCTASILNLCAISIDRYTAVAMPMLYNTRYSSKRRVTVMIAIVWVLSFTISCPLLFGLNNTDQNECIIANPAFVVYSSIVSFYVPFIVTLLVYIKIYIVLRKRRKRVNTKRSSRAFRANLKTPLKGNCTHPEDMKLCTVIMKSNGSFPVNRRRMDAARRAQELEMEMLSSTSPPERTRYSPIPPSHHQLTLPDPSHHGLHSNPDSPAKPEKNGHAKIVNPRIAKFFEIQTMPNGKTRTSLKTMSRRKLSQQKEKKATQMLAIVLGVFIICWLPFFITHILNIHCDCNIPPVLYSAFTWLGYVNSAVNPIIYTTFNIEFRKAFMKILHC
Experiment: Competitive inhibition assay, displacement of 3H-spiperone (D-2 receptor binding)
Set-up: species or system rat (male Sprague-Dawley, striatal tissue)
pKi: −log10 of the molar value.
Reported pKi is given for each of the following compounds.
RECORDED METRIC: pKi

• COc1cc2c(cc1O)[C@H]1c3ccccc3CC[C@@H]1N(C)CC2 (relative stereo) [CH2, 1, trans, CH3O, OH] = 5.60
• Cc1cc2c(cc1O)[C@H]1c3ccccc3CC[C@@H]1N(C)CC2 (relative stereo) [CH2, 1, trans, CH3, OH] = 5.14
